Hello, the source for this data is paper PMC11817060, in case you need it.

# System: SVG p12 (immortalized non-cancer brain astroglia) cells
# Method description: MTT cell viability assay (72 h), fresh or aged solutions, SVG p12
# Format: cell-based, human
# Conditions used: 72 h incubation; fresh solutions added to cells within 1 min (A); read-out: IC50 (SVG p12), fresh solutions (A)
Quantity: pIC50
Note on pIC50: it is the negative log10 of concentration, concentration in mol/L.

**Q:** Give the reported pIC50 for this compound. N.N.[Cl][Pt][Cl] [cisplatin]
**A:** 5.21
